Provenance of the data: patent US20250214991A1

STUDY SYSTEM: IKZF1 (Homo sapiens (Human), UniProt Q13422+Q96SW2)
Sequence (Q13422 whole entry): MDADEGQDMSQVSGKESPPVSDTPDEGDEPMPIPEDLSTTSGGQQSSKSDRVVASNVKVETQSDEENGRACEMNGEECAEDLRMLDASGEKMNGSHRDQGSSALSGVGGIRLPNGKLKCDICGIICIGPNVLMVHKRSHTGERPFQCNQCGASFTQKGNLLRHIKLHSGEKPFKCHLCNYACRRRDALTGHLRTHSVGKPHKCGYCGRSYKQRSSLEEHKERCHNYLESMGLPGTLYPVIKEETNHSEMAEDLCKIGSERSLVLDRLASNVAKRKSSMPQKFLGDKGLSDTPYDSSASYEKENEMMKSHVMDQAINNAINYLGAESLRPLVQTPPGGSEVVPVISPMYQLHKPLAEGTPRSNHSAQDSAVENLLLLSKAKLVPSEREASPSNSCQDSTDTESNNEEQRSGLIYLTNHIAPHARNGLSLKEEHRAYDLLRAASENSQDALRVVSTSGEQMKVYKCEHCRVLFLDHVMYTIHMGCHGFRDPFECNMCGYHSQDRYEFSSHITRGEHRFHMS
Sequence (Q96SW2 whole entry): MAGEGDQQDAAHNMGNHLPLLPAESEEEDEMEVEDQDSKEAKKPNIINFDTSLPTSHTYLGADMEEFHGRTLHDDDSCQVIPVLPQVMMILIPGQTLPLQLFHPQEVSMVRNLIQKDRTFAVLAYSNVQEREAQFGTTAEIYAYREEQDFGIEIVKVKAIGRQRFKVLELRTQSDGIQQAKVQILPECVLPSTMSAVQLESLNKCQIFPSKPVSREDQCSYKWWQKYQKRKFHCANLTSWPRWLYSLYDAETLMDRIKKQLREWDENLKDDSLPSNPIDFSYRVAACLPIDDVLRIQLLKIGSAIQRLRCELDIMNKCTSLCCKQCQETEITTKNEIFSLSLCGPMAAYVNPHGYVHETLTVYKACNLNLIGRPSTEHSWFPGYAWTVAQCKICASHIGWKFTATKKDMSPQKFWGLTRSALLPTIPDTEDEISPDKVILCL
Sequence (Q16531 2-1140 partner): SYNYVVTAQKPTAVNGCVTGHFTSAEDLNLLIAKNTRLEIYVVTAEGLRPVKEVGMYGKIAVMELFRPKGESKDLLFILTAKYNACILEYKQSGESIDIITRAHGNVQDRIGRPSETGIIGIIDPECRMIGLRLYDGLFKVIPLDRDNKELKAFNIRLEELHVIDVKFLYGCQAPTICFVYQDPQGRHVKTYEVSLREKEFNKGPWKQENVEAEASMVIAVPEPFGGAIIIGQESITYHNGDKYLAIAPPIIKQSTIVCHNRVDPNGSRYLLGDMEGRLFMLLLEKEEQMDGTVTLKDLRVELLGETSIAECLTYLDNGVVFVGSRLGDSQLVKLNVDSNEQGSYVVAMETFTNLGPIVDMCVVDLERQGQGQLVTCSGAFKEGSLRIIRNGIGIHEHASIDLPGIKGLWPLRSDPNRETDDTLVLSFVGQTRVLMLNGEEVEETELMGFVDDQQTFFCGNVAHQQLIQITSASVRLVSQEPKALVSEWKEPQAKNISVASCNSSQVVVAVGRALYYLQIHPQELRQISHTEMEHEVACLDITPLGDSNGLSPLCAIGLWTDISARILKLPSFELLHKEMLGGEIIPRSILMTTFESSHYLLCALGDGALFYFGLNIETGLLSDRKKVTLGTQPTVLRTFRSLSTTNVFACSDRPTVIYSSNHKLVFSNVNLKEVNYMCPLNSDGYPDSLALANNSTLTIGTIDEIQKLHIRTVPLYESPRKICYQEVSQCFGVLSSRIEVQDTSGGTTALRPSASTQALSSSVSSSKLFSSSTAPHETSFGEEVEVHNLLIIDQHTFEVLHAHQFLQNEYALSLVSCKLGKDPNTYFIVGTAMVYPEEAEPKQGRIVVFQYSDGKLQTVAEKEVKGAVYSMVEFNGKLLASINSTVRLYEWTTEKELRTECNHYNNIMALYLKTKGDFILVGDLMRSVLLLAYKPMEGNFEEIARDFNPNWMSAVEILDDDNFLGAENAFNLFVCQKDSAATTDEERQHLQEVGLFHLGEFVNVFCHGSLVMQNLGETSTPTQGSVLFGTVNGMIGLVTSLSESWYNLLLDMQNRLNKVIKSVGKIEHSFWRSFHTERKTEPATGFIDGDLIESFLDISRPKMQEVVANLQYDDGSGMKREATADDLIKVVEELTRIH
PROTOCOL: In vitro IKZF1 HiBit Assay (HEK293T Flp-in-HiBiT-IKZF1 stable cell line)
Assay type: cell-based
EXPERIMENTAL CONDITIONS: HEK-293T; HEK293T Flp-in-HiBiT-IKZF1 stable cell line, 6 hrs incubation; read-out: IKZF1 HiBit Dmax (%)
MEASURED QUANTITY: Dmax

Example results:
INSERT INTO results (compound, endpoint_result) VALUES
  ('O=C1CCC(N2Cc3cc(-c4cc(CN5CCCC5)c5nccc(OC(F)F)c5n4)ccc3C2=O)C(=O)N1 (stereo not drawn) [Example 249]', '< 20%'),
  ('O=C1CCC(N2Cc3cc(-c4cc(CN5CCC(O)C5)c5ccn(C6COC6)c5n4)ccc3C2=O)C(=O)N1 (stereo not drawn) [Example 158]', '< 20%'),
  ('CC(C)n1ccc2c(CN3CCCC3)cc(-c3ccc4c(c3)CN(C3CCC(=O)NC3=O)C4=O)nc21 (stereo not drawn) [Example 299]', '< 20%'),
  ('Cc1nn(C2COC2)c2nc(-c3ccc4c(c3)CN(C3CCC(=O)NC3=O)C4=O)cc(CN3CCCC3)c12 (stereo not drawn) [Example 246]', '< 20%');

// each compound listed below needs its Dmax
1. Cn1ccc2c(CN3CCCC3)cc(-c3ccc4c(c3)CN(C3CCC(=O)NC3=O)C4=O)nc21 (stereo not drawn) [Example 55]
2. O=C1CCC(N2Cc3cc(-c4cc(CN5CCCC5CF)c5ccn(C6COC6)c5n4)ccc3C2=O)C(=O)N1 (stereo not drawn) [Example 257]

["20 to 40%", "20 to 40%"]

###

STUDY SYSTEM: CRBN/DDB1 (Homo sapiens (Human))
Sequence (Q96SW2 whole entry, species assumed): as the sequence (Q96SW2 whole entry) above
Sequence (Q16531 whole entry partner, species assumed): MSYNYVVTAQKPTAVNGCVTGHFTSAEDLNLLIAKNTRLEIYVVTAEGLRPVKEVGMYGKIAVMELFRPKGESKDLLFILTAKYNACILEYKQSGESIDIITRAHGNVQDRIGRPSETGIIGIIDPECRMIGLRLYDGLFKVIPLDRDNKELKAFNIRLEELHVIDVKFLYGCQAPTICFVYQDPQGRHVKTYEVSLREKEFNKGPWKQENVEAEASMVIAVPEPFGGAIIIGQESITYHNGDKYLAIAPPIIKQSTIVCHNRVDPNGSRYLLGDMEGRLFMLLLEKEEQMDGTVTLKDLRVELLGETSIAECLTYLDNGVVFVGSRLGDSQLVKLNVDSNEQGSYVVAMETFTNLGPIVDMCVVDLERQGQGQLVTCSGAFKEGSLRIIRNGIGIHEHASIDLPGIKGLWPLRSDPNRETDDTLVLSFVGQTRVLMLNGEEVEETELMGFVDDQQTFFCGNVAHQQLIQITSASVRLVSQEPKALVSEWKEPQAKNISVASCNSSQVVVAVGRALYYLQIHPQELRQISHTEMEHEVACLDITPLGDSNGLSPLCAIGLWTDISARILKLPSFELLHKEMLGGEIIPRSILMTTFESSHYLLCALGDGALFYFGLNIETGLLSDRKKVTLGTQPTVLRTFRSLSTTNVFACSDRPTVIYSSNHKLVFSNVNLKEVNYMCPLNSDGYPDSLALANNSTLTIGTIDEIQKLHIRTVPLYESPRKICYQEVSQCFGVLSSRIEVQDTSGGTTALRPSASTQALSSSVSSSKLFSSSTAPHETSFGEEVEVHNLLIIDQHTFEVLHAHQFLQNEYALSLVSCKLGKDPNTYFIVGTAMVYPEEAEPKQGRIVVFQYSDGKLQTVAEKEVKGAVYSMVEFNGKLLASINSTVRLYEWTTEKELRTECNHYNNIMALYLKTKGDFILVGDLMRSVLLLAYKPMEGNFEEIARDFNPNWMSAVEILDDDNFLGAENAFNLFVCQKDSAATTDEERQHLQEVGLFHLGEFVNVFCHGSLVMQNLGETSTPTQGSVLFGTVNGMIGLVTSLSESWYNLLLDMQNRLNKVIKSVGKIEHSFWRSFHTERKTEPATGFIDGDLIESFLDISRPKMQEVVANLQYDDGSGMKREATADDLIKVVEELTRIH
PROTOCOL: IC50 measurements for binding to CRBN/DDB1 (HTRF)
EXPERIMENTAL CONDITIONS: His tagged CRBN+DDB, Cy5-labeled Thalidomide probe, one hour
pIC50: −log10 of the molar value.
MEASURED QUANTITY: pIC50

Example results:
INSERT INTO measurements (molecule, endpoint_result) VALUES
  ('O=C1CCC(N2Cc3cc(-c4cc(CN5CCCC5)c5ccn(-c6ccccc6)c5n4)ccc3C2=O)C(=O)N1 (centres unmarked)', '6.00 to 6.30'),
  ('O=C1CCC(N2Cc3c(ccc(-c4cc(CN5CCCC5)cc5cncn45)c3F)C2=O)C(=O)N1 (centres unmarked)', '6.00 to 6.30'),
  ('O=C1CCC(N2Cc3cc(-c4cc(CN5CCC6(CC5)COC6)c5ccn(C6COC6)c5n4)ccc3C2=O)C(=O)N1 (centres unmarked)', '6.00 to 6.30'),
  ('Cn1ccc2c(CN3CC4CC4C3)cc(-c3ccc4c(c3)CN(C3CCC(=O)NC3=O)C4=O)nc21 (centres unmarked)', '6.30 to 7.00'),
  ('CC(C)C1CCN(Cc2cc(-c3ccc4c(c3)CN(C3CCC(=O)NC3=O)C4=O)nc3[nH]ccc23)C1 (centres unmarked)', '6.30 to 7.00'),
  ('O=C1CCC(N2Cc3cc(-c4cc(CN5CCC(O)CC5)c5cc[nH]c5n4)ccc3C2=O)C(=O)N1 (centres unmarked)', '6.30 to 7.00'),
  ('O=C1CCC(N2Cc3cc(-c4cc(CN5CCC(c6ccccc6)CC5)cn5ccnc45)ccc3C2=O)C(=O)N1 (centres unmarked)', '> 7.00'),
  ('Cn1ccc2c(CN3CCC(C(F)(F)F)CC3)cc(-c3ccc4c(c3)CN(C3CCC(=O)NC3=O)C4=O)nc21 (centres unmarked)', '6.30 to 7.00');

// each molecule listed below needs its pIC50
1. Cn1ccc2c(O[C@@H]3CCNC3)cc(-c3ccc4c(c3)CN([C@H]3CCC(=O)NC3=O)C4=O)nc21
2. O=C1CCC(N2Cc3cc(-c4ccc(CN5CCCC5)c5cncn45)ccc3C2=O)C(=O)N1 (centres unmarked)
3. Cn1ccc2c(CN3CC4(CCC4)C3)cc(-c3ccc4c(c3)CN(C3CCC(=O)NC3=O)C4=O)nc21 (centres unmarked)
4. Cn1ccc2c(CN3CCC(S(C)(=O)=O)CC3)cc(-c3ccc4c(c3)CN(C3CCC(=O)NC3=O)C4=O)nc21 (centres unmarked)
5. O=C1CCC(N2Cc3cc(-c4cc(CNCc5ccccc5)cc5cncn45)ccc3C2=O)C(=O)N1 (centres unmarked)
6. C[C@@H](NCc1cc(-c2ccc3c(c2)CN(C2CCC(=O)NC2=O)C3=O)n2cncc2c1)c1ccccc1 (single isomer, unassigned)

["5.30 to 6.00", "5.30 to 6.00", "6.30 to 7.00", "5.30 to 6.00", "6.30 to 7.00", "6.00 to 6.30"]

###

For each entry below, report its inhibition at 0.01 µM value.
STUDY SYSTEM: IKZF2 (Homo sapiens (Human), UniProt Q96SW2+Q9UKS7)
Sequence (Q9UKS7 whole entry): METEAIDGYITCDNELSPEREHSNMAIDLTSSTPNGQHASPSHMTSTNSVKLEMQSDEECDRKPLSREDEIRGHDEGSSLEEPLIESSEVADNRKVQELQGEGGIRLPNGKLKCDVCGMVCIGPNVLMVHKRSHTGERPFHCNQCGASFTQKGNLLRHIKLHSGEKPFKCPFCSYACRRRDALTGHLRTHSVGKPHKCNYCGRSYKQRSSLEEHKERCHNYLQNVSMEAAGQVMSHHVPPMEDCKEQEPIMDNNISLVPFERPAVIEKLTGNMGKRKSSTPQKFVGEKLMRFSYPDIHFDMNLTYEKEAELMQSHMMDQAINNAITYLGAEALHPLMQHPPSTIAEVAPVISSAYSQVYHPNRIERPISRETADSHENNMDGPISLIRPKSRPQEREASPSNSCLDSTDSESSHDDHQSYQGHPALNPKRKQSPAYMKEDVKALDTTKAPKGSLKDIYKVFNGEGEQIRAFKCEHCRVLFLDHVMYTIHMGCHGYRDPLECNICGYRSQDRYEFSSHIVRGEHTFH
Sequence (Q96SW2 whole entry): as the sequence (Q96SW2 whole entry) above
Sequence (Q16531 2-1140 partner): as the sequence (Q16531 2-1140 partner) above
PROTOCOL: In vitro IKZF2 Western Blot Assay in Jurkat cells
Format: cell-based
EXPERIMENTAL CONDITIONS: 24 hrs, 0.01 μM, read-out: IKZF2 degradation (%) @ μM 0.01

INSERT INTO assay_data (molecule, endpoint_result) VALUES
  ('O=C1CCC(N2Cc3cc(-c4cc(CNCCc5c(F)cccc5F)cn5ccnc45)ccc3C2=O)C(=O)N1 (stereo not shown)', '< 30%');

// each molecule listed below needs its inhibition at 0.01 µM
1. O=C1CCC(N2Cc3cc(-c4cc(CN5CCC(F)(F)CC5)cn5ccnc45)ccc3C2=O)C(=O)N1 (stereo not shown)
2. O=C1CCC(N2Cc3cc(-c4cc(CN5CC(c6ccccc6)C5)cn5ccnc45)ccc3C2=O)C(=O)N1 (stereo not shown)
3. O=C1CCC(N2Cc3cc(-c4cc(CN5CCC(c6ccccc6)CC5)cn5ccnc45)ccc3C2=O)C(=O)N1 (stereo not shown)

["< 30%", "< 30%", "30 to 50%"]

###

For each entry below, report its Dmax value.
STUDY SYSTEM: IKZF2 (Homo sapiens (Human), UniProt Q96SW2+Q9UKS7)
PROTOCOL: In vitro IKZF2 FACS Assay in Jurkat cells
Format: cell-based
EXPERIMENTAL CONDITIONS: 24 hrs, maximal degradation percentage

Example results:
INSERT INTO results (molecule, measured_quantity, endpoint_result) VALUES
  ('CC(C)Nc1n[nH]c2c(CN3CC4(CCOCC4)C3)cc(-c3ccc4c(c3F)CN(C3CCC(=O)NC3=O)C4=O)nc12 (stereo not drawn)', 'Dmax', '> 80%'),
  ('O=C1CCC(N2Cc3cc(-c4cc(CN5CCCC5)c5c(C(F)(F)F)nn(C6COC6)c5n4)ccc3C2=O)C(=O)N1 (stereo not drawn)', 'Dmax', '40 to 60%'),
  ('O=C1CCC(N2Cc3c(ccc(-c4cc(CN5CCCC5)c5ccn(C6CS(=O)(=O)C6)c5n4)c3Cl)C2=O)C(=O)N1 (stereo not drawn)', 'Dmax', '> 80%'),
  ('O=C1CCC(N2Cc3cc(-c4cc(CN5CCCC5)c5ccn(C6CS(=O)(=O)C6)c5n4)ccc3C2=O)C(=O)N1 (stereo not drawn)', 'Dmax', '60 to 80%'),
  ('O=C1CCC(N2Cc3cc(-c4cc(CN5CCCC5)c5ccn(C6CCOC6)c5n4)ccc3C2=O)C(=O)N1 (stereo not drawn)', 'Dmax', '60 to 80%');

// each molecule listed below needs its Dmax
1. Cn1ccc2c(CN3CCCC3)c(Cl)c(-c3ccc4c(c3F)CN(C3CCC(=O)NC3=O)C4=O)nc21 (stereo not drawn)
2. O=C1CCC(N2Cc3cc(-c4cc(CN5CCCCC56CC6)c5ccn(C6COC6)c5n4)ccc3C2=O)C(=O)N1 (stereo not drawn)
3. O=C1CCC(N2Cc3cc(-c4cc(CN5CCC5)cc5cncn45)ccc3C2=O)C(=O)N1 (stereo not drawn)

> 80%
40 to 60%
40 to 60%

For Nc1n[nH]c2c(CN3CCCC3)cc(-c3ccc4c(c3)CN(C3CCC(=O)NC3=O)C4=O)nc12 (stereo not drawn) , what is its reported Dmax?
> 80%

###

STUDY SYSTEM: IKZF2 (Homo sapiens (Human), UniProt Q96SW2+Q9UKS7)
PROTOCOL: In vitro IKZF2 FACS Assay in Jurkat cells
Type: cell-based
EXPERIMENTAL CONDITIONS: 24 hrs, half maximal degradation concentration
For each entry below, report its DC50 value.

INSERT INTO assay_data (compound, endpoint_result) VALUES
  ('CC(C)Nc1n[nH]c2c(CN3CCCC3)cc(-c3ccc4c(c3)C(C)N(C3CCC(=O)NC3=O)C4=O)nc12 (centres unmarked)', '1 to 10 nM'),
  ('O=C1CCC(N2Cc3c(ccc(-c4cc(CN5CC6COCC6C5)c5ccn(C6CS(=O)(=O)C6)c5n4)c3F)C2=O)C(=O)N1 (centres unmarked)', '1 to 10 nM'),
  ('C[C@H](NCc1cc(-c2ccc3c(c2)CN(C2CCC(=O)NC2=O)C3=O)n2cncc2c1)c1ccccc1 (single isomer, unassigned)', '10 to 100 nM'),
  ('CNc1n[nH]c2c(CN3CCCC3)cc(-c3ccc4c(c3)CN(C3CCC(=O)NC3=O)C4=O)nc12 (centres unmarked)', '1 to 10 nM'),
  ('O=C1CCC(N2Cc3cc(-c4cc(CN5CCC(O)C5)c5ccn(C6COC6)c5n4)ccc3C2=O)C(=O)N1 (centres unmarked)', '10 to 100 nM'),
  ('Nc1n[nH]c2c(CN3CC4COCC(C4)C3)cc(-c3ccc4c(c3)CN(C3CCC(=O)NC3=O)C4=O)nc12 (centres unmarked)', '10 to 100 nM');

// each compound listed below needs its DC50
1. CC1CCN(Cc2cc(-c3ccc4c(c3)CN(C3CCC(=O)NC3=O)C4=O)n3cncc3c2)C1 (centres unmarked)
2. O=C1CCC(N2Cc3cc(-c4cc(CN5CCCC5)c5ccn(C6COC6)c5n4)ccc3C2=O)C(=O)N1 (centres unmarked)
3. Cc1cn(C2COC2)c2nc(-c3ccc4c(c3)CN(C3CCC(=O)NC3=O)C4=O)cc(CN3CCCC3)c12 (centres unmarked)
4. CC(C)Nc1n[nH]c2c(CN3CCC4(CC3)COC4)cc(-c3ccc4c(c3F)CN(C3CCC(=O)NC3=O)C4=O)nc12 (centres unmarked)

["10 to 100 nM", "1 to 10 nM", "1 to 10 nM", "10 to 100 nM"]

// each compound listed below needs its DC50
1. O=C1CCC(N2Cc3cc(-c4cc(CN5CCCC5)c5ccn(C6CS(=O)(=O)C6)c5n4)ccc3C2=O)C(=O)N1 (centres unmarked)
2. O=C1CCC(N2Cc3cc(-c4cc(CN5CCCC5)c5nccc(OC6CCC6)c5n4)ccc3C2=O)C(=O)N1 (centres unmarked)
3. CC(C)(NCc1cc(-c2ccc3c(c2)CN(C2CCC(=O)NC2=O)C3=O)n2cncc2c1)c1ccccc1 (centres unmarked)
4. O=C1CCC(N2Cc3c(ccc(-c4cc(CN5CCCC5)c5ccn(C6CS(=O)(=O)C6)c5n4)c3F)C2=O)C(=O)N1 (centres unmarked)
5. O=C1CCC(N2Cc3c(ccc(-c4cc(CN5CCCC5)c5ccn(C6COC6)c5n4)c3F)C2=O)C(=O)N1 (centres unmarked)

["1 to 10 nM", "10 to 100 nM", "100 to 1000 nM", "1 to 10 nM", "1 to 10 nM"]

// each compound listed below needs its DC50
1. O=C1CCC(N2Cc3cc(-c4cc(CN5CCCCC5)cc5cncn45)ccc3C2=O)C(=O)N1 (centres unmarked)
2. O=C1CCC(N2Cc3cc(-c4cc(CN5CCCC5)c5ccn(C6CC(F)(F)C6)c5n4)ccc3C2=O)C(=O)N1 (centres unmarked)

1: 10 to 100 nM; 2: 1 to 10 nM
